System: SH-SY5Y
test protocol: Inhibition of calcium channel in human SH-SY5Y cells assessed as blockade of K+-evoked cytosolic calcium increase at 3 uM after 15 mins using Fluo-4/AM by fluorescence microplate reader analysis
Format: cell-based
measurement kind: inhibition (%)
Numeric answer only, unit % assumed.

Solved cases (4 shown):
{"smiles structure": "CN1CCN(CC(=O)n2c3ccccc3sc3ccc(Cl)cc3n2C(=O)CN2CCN(C)CC2)CC1", "inhibition, %": 9.3}
{"smiles structure": "COC(=O)C1=C(C)NC(C)=C(C(=O)OC)C1c1ccccc1[N+](=O)[O-]", "inhibition, %": 47.9}
{"smiles structure": "COc1ccc2c(c1)sc1ccccc1n(C(C)=O)n2C(C)=O", "inhibition, %": 13.1}
{"smiles structure": "O=C(CCN1CCCCC1)n1c2ccccc2sc2ccc(Cl)cc2n1C(=O)CCN1CCCCC1", "inhibition, %": 16.2}

// query So what inhibition did `CC(=O)n1c2ccccc2sc2cc(Cl)ccc2n1C(C)=O` get with SH-SY5Y?
// result 21.5
